# target system: T1, HIS-tagged human CD73 (huCD73-HIS) (human, UniProt P21589 27-547)
# T1 sequence: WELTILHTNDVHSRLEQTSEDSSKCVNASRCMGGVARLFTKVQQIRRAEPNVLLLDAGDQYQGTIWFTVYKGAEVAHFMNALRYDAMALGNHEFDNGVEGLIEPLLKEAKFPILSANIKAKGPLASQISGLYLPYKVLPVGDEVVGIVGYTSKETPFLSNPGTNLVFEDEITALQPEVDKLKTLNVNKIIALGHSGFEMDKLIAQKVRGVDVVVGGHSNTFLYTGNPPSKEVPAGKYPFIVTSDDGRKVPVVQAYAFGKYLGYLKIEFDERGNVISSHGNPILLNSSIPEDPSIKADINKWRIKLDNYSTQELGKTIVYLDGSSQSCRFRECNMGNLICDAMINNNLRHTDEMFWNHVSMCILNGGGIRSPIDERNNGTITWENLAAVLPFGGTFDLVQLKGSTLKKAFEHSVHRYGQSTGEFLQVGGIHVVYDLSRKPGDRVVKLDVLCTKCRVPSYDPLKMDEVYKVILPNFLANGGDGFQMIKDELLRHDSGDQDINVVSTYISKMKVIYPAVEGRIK
# test method notes: cell-based or functional assay
metric name: IC50 (nM), huCD73 enzymatic assay in solution
Give bare numbers, in nM.

Previously resolved entries follow.
[
  {
    "binder": "60A9-H4L2 (antibody, V domains shown) VH: EVQLVESGGGLVQPGQSLKLSCKASGYAFSSYWMNWVRQAPGKGLEWIGQIYPGDGDTYYSGSVKGRATLSADKSKNTAYLQLNNLRAEDTAVYYCAREAIYYGNYVFTYWGQGTLVTVSS VL: DIVMTQSPSSLSASLGDRVTITCKSSQSLLNSSNQKNYLAWYQQKPGQSPKLLIYFASTRDSGVPDRFSGSGSGTDFTLTISSLEPEDFATYYCQQHYSTPLTFGGGTKLEIK",
    "reported": 4.97
  },
  {
    "binder": "60A9-H3L2 (antibody, V domains shown) VH: EVQLVESGGGLVQPGQSLKLSCKASGYAFSSYWMNWVRQAPGKGLEWIGQIYPGDGDTYYNPSVKGRATLSADKSKNTAYLQLNNLRAEDTAVYYCAREAIYYGNYVFTYWGQGTLVTVSS VL: DIVMTQSPSSLSASLGDRVTITCKSSQSLLNSSNQKNYLAWYQQKPGQSPKLLIYFASTRDSGVPDRFSGSGSGTDFTLTISSLEPEDFATYYCQQHYSTPLTFGGGTKLEIK",
    "reported": 4.97
  }
]

Prompt: Read off the recorded IC50 (nM), huCD73 enzymatic assay in solution for 60A9-H1L2 (antibody, V domains shown) VH: EVQLVESGGGLVQPGQSLKLSCKASGYAFSSYWMNWVRQAPGKGLEWMGQIYPGDGDTYYNPSVKGRFTISADTSKNTAYLQLNNLRAEDTAVYYCAREAIYYGNYVFTYWGQGTLVTVSS VL: DIVMTQSPSSLSASLGDRVTITCKSSQSLLNSSNQKNYLAWYQQKPGQSPKLLIYFASTRDSGVPDRFSGSGSGTDFTLTISSLEPEDFATYYCQQHYSTPLTFGGGTKLEIK
Completion: 6.17

Measured values drawn from patent US20200399389A1 for this set.
